protocolSummary: gradient 5% acetonitrile 3 min, to 50% in 2 min, to 85% in 15 min, held 3 min, 100 µL/min
runParameters: column: Zorbax Extend-C18 2.1 x 50 mm; eluents: water / acetonitrile, 0.1% formic acid
For each entry below, report its RP-LC retention time value.
Numbers only, in s.

As a guide, the following entries are already answered.
- molecule: "Cc1cc(C(=O)N2CCOCC2)nn1CC(=O)NCc1ccc2c(c1)OCO2"
  RP-LC retention time (s): 634
- molecule: "C[C@@H]1c2ccccc2CCN1C(=O)Cc1ccccc1F"
  RP-LC retention time (s): 950
- molecule: "CCSc1nnc(-c2nn(C)c3c2CN(C(=O)c2cccc(N(C)C)c2)CC3)n1C"
  RP-LC retention time (s): 682
- molecule: "Cc1ccc(C)c(Cn2nc3ccc(S(=O)(=O)N4CCC(C)CC4)cn3c2=O)c1"
  RP-LC retention time (s): 1130
- molecule: "O=C(Cn1nc2nc(N3CCCC3)ccn2c1=O)Nc1ccc(F)c(Cl)c1"
  RP-LC retention time (s): 708
- molecule: "COc1ccc(-c2noc(CN3C(=O)COc4ccccc43)n2)cc1"
  RP-LC retention time (s): 953
- molecule: "O=S(=O)(Nc1ccccc1)c1ccc(-c2nnc(C3CCC3)o2)o1"
  RP-LC retention time (s): 883
- molecule: "O=C(Cn1ccnc1)N1CCCCC1c1nncn1Cc1ccccc1 (centres undefined)"
  RP-LC retention time (s): 579
- molecule: "CCCNc1cc(N2CCCC(CCC(=O)N(CC)CC)C2)ncn1 (centres undefined)"
  RP-LC retention time (s): 658
- molecule: "O=C(Cn1nc(N2CCSCC2)c2ccccc2c1=O)Nc1cccc(C(F)(F)F)c1"
  RP-LC retention time (s): 1030

Consider the following items and state reported RP-LC retention time for each.
1. O=C1CCCc2c1cc(C(=O)NCc1cccnc1)c(=O)n2-c1ccc(C(F)(F)F)cc1
2. COc1ccc(-c2cn3ccn(-c4ccc(Cl)cc4)c(=O)c3n2)cc1
3. Cc1ccc(-c2cn3c(CC(=O)Nc4ccc(F)cc4F)csc3n2)cc1C
4. Cc1ccc(N2CCN(c3ncc(C(=O)O)c(C)n3)CC2)cc1
5. CCOc1ccccc1NC(=O)C1CCN(S(=O)(=O)c2ccc3c(c2)sc(=O)n3C)CC1
6. COc1ccc(-c2nc3ncccn3c2NCc2ccccc2)cc1
7. O=C(Nc1ccc2c(c1)OCO2)c1noc2c1CCCC2

644
828
861
863
931
717
883

Give RP-LC retention time for each of the items listed below.
1. O=C(Nc1ccc(Cn2cncn2)cc1)c1ccccn1
2. CCc1ccc(NS(=O)(=O)c2c(C)sc(C)c2-c2cc(C)[nH]n2)cc1

654
1130

Record RP-LC retention time for all entries; do not skip any.
1. O=C(Cn1cnc2c(nc3n2CCCCC3)c1=O)N1CCN(C2CCCCC2)CC1
2. Cc1c(C(=O)N2CCN(c3ccc(F)cc3)CC2)sc2nc[nH]c(=O)c12
3. Cc1cc(C)n(-c2ccc(C(=O)NC3CCCC3)cn2)n1
4. COCCN1C(=O)Cc2ccccc2C1C(=O)NCc1ccc(C(C)C)cc1 (centres undefined)
5. O=C(CCn1c(N2CCCC2)nc2ccsc2c1=O)N1CCN(c2ccccc2)CC1
6. O=C(C1=CN(c2ccccc2)c2cc(F)ccc2S1(=O)=O)N1CCCCC1
7. CCn1nccc1C(=O)N1CCC2(CC1)N=C(c1ccc(C)cc1)NO2
8. Cc1nc(-c2ccc3c(c2)CCN3C(=O)Cc2cccc(F)c2)no1

1: 585; 2: 706; 3: 885; 4: 861; 5: 814; 6: 882; 7: 734; 8: 923

Batch request: RP-LC retention time per item, same order as input.
1. Cc1ccc(CNC(=O)Cn2ccc3ccc(-c4nnc(C)o4)cc32)o1
2. CC(C(=O)Nc1ccccc1C(F)(F)F)N1C(=O)c2ccccc2S1(=O)=O (centres undefined)

1. 729
2. 828
